# activity, negative = inhibition per entry
# target-entity: Cytochrome P450 3A4 (Homo sapiens) (UniProt P08684)
# Sequence (P08684 whole entry, looked up): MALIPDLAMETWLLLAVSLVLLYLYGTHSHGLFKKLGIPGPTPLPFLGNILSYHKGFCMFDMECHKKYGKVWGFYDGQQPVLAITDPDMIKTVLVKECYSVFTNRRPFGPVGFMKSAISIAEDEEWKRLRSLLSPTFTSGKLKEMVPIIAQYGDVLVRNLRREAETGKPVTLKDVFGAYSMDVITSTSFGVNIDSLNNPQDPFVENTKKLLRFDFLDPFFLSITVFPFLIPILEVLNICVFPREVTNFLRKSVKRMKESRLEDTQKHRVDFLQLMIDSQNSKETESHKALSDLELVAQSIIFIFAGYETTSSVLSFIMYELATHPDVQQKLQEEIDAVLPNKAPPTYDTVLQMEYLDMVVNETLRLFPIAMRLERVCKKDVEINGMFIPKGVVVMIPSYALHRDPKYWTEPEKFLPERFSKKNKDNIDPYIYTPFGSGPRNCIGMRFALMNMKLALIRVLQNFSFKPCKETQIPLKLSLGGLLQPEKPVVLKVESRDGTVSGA
# assay-remarks: Cytochrome panel assay with activity outcomes; for activity, negative = inhibition: % is set by controls: 0 for no effect and ±100 for the full control effect
# conditions: recombinant CYP, pro-luciferin dealkylation, luminescence, p450-cyp3a4; series mostly up to 57.1 µM
The campaign covered roughly 16,000 compounds. About 5,100 (32%) were called active. Inconclusive results (about 25%) are left out. Some of the results follow.

| compound | target-entity | endpoint | reported |
| --- | --- | --- | --- |
| COc1cccc(-c2[nH]nc3c2C(c2ccc(C)o2)C(C#N)=C(N)O3)c1 (stereo unspecified) | Cytochrome P450 3A4 (Homo sapiens) (UniProt P08684) | activity, negative = inhibition | -27.5% [at 2.29 µM] (inactive) |

Moving on to another compound below.
// sample O=C(CCNC(=O)Cn1cnc2ccccc2c1=O)NCC1COc2ccccc2O1 (stereo unspecified) , its activity, negative = inhibition was 5.27% [at 2.29 µM] (inactive)

* * *

# target-entity: Cytochrome P450 3A4 (Homo sapiens) (UniProt P08684)
# assay-remarks: Cytochrome panel assay with activity outcomes; for activity, negative = inhibition: % is set by controls: 0 for no effect and ±100 for the full control effect
# conditions: recombinant CYP, pro-luciferin dealkylation, luminescence, p450-cyp3a4; series mostly up to 57.1 µM
Out of some 16,000 compounds screened, about 5,100 (32%) were called active. Roughly 25% stayed inconclusive and do not appear here. Some of the results follow.
# activity, negative = inhibition per entry

Before answering, review these 2 worked examples.
| structure | reported |
| --- | --- |
| Cn1c(=O)c2[nH]c(CCCCc3nc4ccccc4[nH]3)nc2n(C)c1=O | -19% [at 11.4 µM] (inactive) |
| O=C(O)c1cc(-c2ccc(-c3ccccc3)cc2)nc2cc3ccccc3cc12 | 2.43% [at 11.4 µM] (inactive) |

// sample `O=C(Nc1ccccc1-c1nc2ccccc2[nH]1)c1ccc(S(=O)(=O)N2CCCCC2)cc1` , its activity, negative = inhibition was -23.2% [at 2.29 µM] (inactive)

// sample `Cc1ccccc1S(=O)(=O)Oc1ccccc1C(=O)Oc1ccccc1` , its activity, negative = inhibition was -12.1% [at 2.29 µM] (inactive)

// sample `O=C(O)/C=C\C(=O)Nc1ccccn1` , its activity, negative = inhibition was -10.9% [at 11.4 µM] (inactive)

// sample `O=c1[nH]c2[nH]c(=S)[nH]c(=S)c2[nH]1` , its activity, negative = inhibition was -17.9% [at 11.4 µM] (inactive)

* * *

# target-entity: Cytochrome P450 3A4 (Homo sapiens)
# assay-remarks: Cytochrome panel assay with activity outcomes
# conditions: recombinant CYP, pro-luciferin dealkylation, luminescence, p450-cyp3a4; series mostly up to 57.1 µM
The campaign covered roughly 16,000 compounds. About 5,100 (32%) were called active. Roughly 25% stayed inconclusive and do not appear here. Calls follow the shape of the dose curve; as a rule, active = well fitted curve in the direction sought with a large enough effect; inconclusive = small, poorly fitted or top-dose-only effect, or effect the other way; inactive = no such curve, though single readings can be large or run the other way. The list shows a part of the results.
Your reply should match one of these outcome classes. active, inactive

The examples below pair each entry with its known result.
| molecule | target-entity | class |
| --- | --- | --- |
| O=C(COC(=O)c1cccnc1Nc1cccc(C(F)(F)F)c1)NCc1ccc2c(c1)OCO2 | Cytochrome P450 3A4 (Homo sapiens) | active |
| Cc1noc2ncnc(Oc3ccc4ccccc4c3)c12 | Cytochrome P450 3A4 (Homo sapiens) | inactive |
| Cc1cc(C)nc(Nc2n[nH]c(COc3ccc4ccccc4c3)n2)n1 | Cytochrome P450 3A4 (Homo sapiens) | active |
| CN1CCN(c2ncnc3ccc(-c4ccc5c(c4)OCO5)cc23)CC1 | Cytochrome P450 3A4 (Homo sapiens) | active |

Ask | State the result this test recorded for `COc1ccc(NC(=O)N2CC3(CCN(C(=O)c4csnn4)CC3)C2)cc1` .
Reply | inactive

Ask | State the result this test recorded for `CN(C)c1ccc(-c2ccc3ncnc(N4CCNCC4)c3c2)cc1` .
Reply | active

Ask | State the result this test recorded for `CN1CCN(c2nc(-c3ccccc3)cc(C(F)(F)F)n2)CC1` .
Reply | inactive

Ask | State the result this test recorded for `c1cncc(-c2ccc3ncnc(N4CCNCC4)c3c2)c1` .
Reply | active

Ask | State the result this test recorded for `O=C(COC(=O)c1ccccc1Nc1cccc(C(F)(F)F)c1)NCc1ccco1` .
Reply | active

* * *

# target-entity: Cytochrome P450 3A4 (Homo sapiens)
# assay-remarks: Cytochrome panel assay with activity outcomes
# conditions: recombinant CYP, pro-luciferin dealkylation, luminescence, p450-cyp3a4; series mostly up to 57.1 µM
About 5,100 (32%) of roughly 16,000 compounds were called active. Not shown: some 25% with an inconclusive outcome. Calls follow the shape of the dose curve; as a rule, active = well fitted curve in the direction sought with a large enough effect; inconclusive = small, poorly fitted or top-dose-only effect, or effect the other way; inactive = no such curve, though single readings can be large or run the other way. The list shows a part of the results.
Your reply should match one of these outcome classes. t for active, f for inactive

The examples below pair each entry with its known result.
| molecule | class |
| --- | --- |
| COc1cccc(C(=O)Nc2ccc(-c3nnc(-c4ccco4)o3)cc2)c1 | t |
| COc1cc(C(=O)Nc2ccc(-c3nnc(-c4ccco4)o3)cc2)cc(OC)c1OC | t |
| CCc1cccc2c(C=C(C#N)C#N)cn(CC(=O)N3CCCCC3)c12 | f |
| COc1ccccc1C(c1nnnn1C(C)(C)C)N1CCCc2ccccc21 (stereo unspecified) | t |
| COc1ccc(CNc2nc(-c3c(C)noc3C)nc3ccccc23)c(OC)c1 | t |
| Cc1noc(C)c1-c1nc(NCc2cccs2)c2ccccc2n1 | t |
| COc1ccccc1C(c1nnnn1C(C)(C)C)N1CCN(Cc2ccncc2)CC1 (stereo unspecified) | t |
| Cc1ccc(Nc2nc(-c3c(C)nc4ncccn34)cs2)cc1 | t |
| CCN(CC)C(=O)Cn1cc(/C=C(\C#N)C(=O)N2CCN(c3ccccc3)CC2)c2ccccc21 | t |
| Cc1ccccc1-c1nc(N2CCNCC2)c2ccccc2n1 | t |

Moving on to the next molecule.
Ask | State the result this test recorded for `Cc1ccccc1-c1nc(N2CCN(C)CC2)c2ccccc2n1` .
Reply | t

* * *

# target-entity: Cytochrome P450 3A4 (Homo sapiens)
# assay-remarks: Cytochrome panel assay with activity outcomes
# conditions: recombinant CYP, pro-luciferin dealkylation, luminescence, p450-cyp3a4; series mostly up to 57.1 µM
# Method: The P450 gene superfamily is involved in the metabolism and clearance of xenobiotics. This assay used various human CYP P450 isozymes to measure the dealkylation of various pro-luciferin substrates to luciferin. The luciferin is then measured by luminescence after the addition of a luciferase detection reagent. […] Inhibitors and some substrates limit the production of luciferin, and decrease measured luminescence. […] 8, Detection, 1 sec, ViewLux luminescent read […]
The campaign covered roughly 16,000 compounds. About 5,100 (32%) were called active. Roughly 25% stayed inconclusive and do not appear here. The list shows a part of the results.
endpoint: AC50

| compound | AC50 |
| --- | --- |
| O=C(CCN1C(=O)C2C3C=CC(C3)C2C1=O)Nc1c(F)cccc1F (stereo not given) | 3.98 µM (active) |
| CC(C)OC(=O)c1cccc(C(=O)Oc2ccc(Br)cc2)n1 | inactive |
| COc1ccc(CNc2ccnc(-c3ccc(N(C)C)cc3)n2)c(OC)c1 | 12.6 µM (active) |
| COc1ccc(N2CCN(S(=O)(=O)c3ccc4c(c3)CCCC4)CC2)c([N+](=O)[O-])c1 | 4.47 µM (active) |
| O=C(Nc1ccc(C(=O)Nc2ccc(C(=O)Nc3ccc(S(=O)(=O)O)c4cc(S(=O)(=O)O)cc(S(=O)(=O)O)c34)cc2)cc1)Nc1ccc(C(=O)Nc2ccc(C(=O)Nc3ccc(S(=O)(=O)O)c4cc(S(=O)(=O)O)cc(S(=O)(=O)O)c34)cc2)cc1 | inactive |

// sample `Cc1cccc(OCCSCc2nc3ccccc3[nH]2)c1` , its AC50 was 7.08 µM (active)

// sample O=C(Nc1ccccc1)N(Cc1ccccc1)CC(O)C(F)(F)F (stereo not given) , its AC50 was inactive

// sample `CC(=O)c1c(O)cc(=O)n(-c2ccccc2)c1-c1ccc(C)cc1` , its AC50 was inactive

// sample `Oc1cc2c(cc1O)[C@H](c1ccccc1)CNCC2` , its AC50 was inactive

// sample `CC(C)(C)OC(=O)COc1cc(OCC(=O)OC(C)(C)C)c2c(=O)cc(-c3ccccc3)oc2c1` , its AC50 was inactive

* * *

# target-entity: Cytochrome P450 3A4 (Homo sapiens)
# assay-remarks: Cytochrome panel assay with activity outcomes
# conditions: recombinant CYP, pro-luciferin dealkylation, luminescence, p450-cyp3a4; series mostly up to 57.1 µM
About 5,100 (32%) of roughly 16,000 compounds were called active. About 25% were inconclusive and are not listed. Calls follow the shape of the dose curve; as a rule, active = well fitted curve in the direction sought with a large enough effect; inconclusive = small, poorly fitted or top-dose-only effect, or effect the other way; inactive = no such curve, though single readings can be large or run the other way. This is one part of the list.
Your reply should match one of these outcome classes. active, inactive

| compound | class |
| --- | --- |
| O=C(c1cc(C(F)(F)F)cc(C(F)(F)F)c1)N1CCC2(CC1)CN(c1ncccn1)C2 | inactive |

Ask | State the result this test recorded for `COCC(=O)N1CCC2(CC1)CN(C(=O)Nc1ccccc1)C2` .
Reply | inactive

Ask | State the result this test recorded for `COc1cccc(-c2cncnc2Nc2ccc(F)cc2)c1` .
Reply | active

Ask | State the result this test recorded for `C=CCNc1nc(Cl)nc(Nc2ccc(OC)cc2)n1` .
Reply | active

Ask | State the result this test recorded for `COc1ccc2c(c1)Cc1sc(NC(=O)c3ccco3)nc1-2` .
Reply | active

Ask | State the result this test recorded for `CCc1nnc(NC(=O)CCC(=O)NCc2ccccc2OC)s1` .
Reply | inactive

Ask | State the result this test recorded for `O=C(c1cc(C(F)(F)F)cc(C(F)(F)F)c1)N1CCC[C@@]2(CCN(c3ccccn3)C2)C1` .
Reply | active

Ask | State the result this test recorded for `O=C(c1cc(C(F)(F)F)cc(C(F)(F)F)c1)N1CCC[C@@]2(CCN(c3ncccn3)C2)C1` .
Reply | active

Ask | State the result this test recorded for `CS(=O)(=O)Nc1cccc(-c2cncnc2Nc2ccc(F)cc2)c1` .
Reply | active

Ask | State the result this test recorded for `Cc1cc(C(=O)CC#N)c(C)n1CC(F)(F)F` .
Reply | active

Ask | State the result this test recorded for Cc1sc(NC(=O)c2ccco2)c(C(c2cccnc2)N2CCCC2)c1C (stereo unspecified) .
Reply | active
